Biological target: Vhr1 (UniProt P40522)
Sequence: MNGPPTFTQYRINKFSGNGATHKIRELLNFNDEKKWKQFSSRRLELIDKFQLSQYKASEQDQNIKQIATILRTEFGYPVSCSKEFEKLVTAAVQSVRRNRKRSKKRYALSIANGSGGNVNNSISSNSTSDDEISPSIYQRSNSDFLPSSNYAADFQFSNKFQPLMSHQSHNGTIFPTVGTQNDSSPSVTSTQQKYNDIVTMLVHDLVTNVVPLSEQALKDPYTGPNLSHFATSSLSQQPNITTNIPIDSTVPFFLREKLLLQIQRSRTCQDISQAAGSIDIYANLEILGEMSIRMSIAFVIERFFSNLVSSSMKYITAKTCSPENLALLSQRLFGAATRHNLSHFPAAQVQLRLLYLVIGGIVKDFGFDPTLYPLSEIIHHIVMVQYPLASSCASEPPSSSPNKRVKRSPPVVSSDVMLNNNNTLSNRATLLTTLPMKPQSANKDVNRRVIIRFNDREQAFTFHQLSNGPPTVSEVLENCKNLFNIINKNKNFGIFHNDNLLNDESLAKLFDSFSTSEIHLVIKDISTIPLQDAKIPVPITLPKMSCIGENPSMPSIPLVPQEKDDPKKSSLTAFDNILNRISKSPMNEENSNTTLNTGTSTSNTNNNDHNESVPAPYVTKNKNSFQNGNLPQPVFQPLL
Test: PBM E-score (8-mer binding enrichment) (E-score (-0.5 to 0.5)); higher = stronger / more preferred TF binding
Details: protein concentration: 200 nM; construct: GST-full length
The full ranking holds about 33,000 sequences; the median of “E-score (-0.5 to 0.5)” is about -0.012, and the highest 2% start at about 0.27. This excerpt belongs to a sample that is enriched for the highest values.
PBM E-score of -0.07 or higher: True. Under -0.07: False.

Known results for sequences:
>>> assigned_label("CTGGGTGC")
"True"
>>> assigned_label("CAGTCACC")
"True"
>>> assigned_label("AACTGAGG")
"True"
>>> assigned_label("CGTGGTGA")
"False"
>>> assigned_label("AGCAGTCA")
"True"

Given the entry CTGGGTCA , answer whether its PBM E-score meets or surpasses -0.07.
True

Input GAGGGTGA
True

Another sequence to look at: CCAATACG
False

What do you have for GTTTGTGA ?
False

Then ATCGTCTA ?
True

Now give it for ATGCTCAA too.
False

Param item: CCGTCACA
False

Same for CTACTCAA
True

Input CGCAGTCA
True

# iterate: GGCAGTGA
True

For AGAGTCTC then?
True

What do you get for AGACTTGC ?
False

Same thing, different sequence: CTGGGTGA
True

Now try AGAGTCAT .
True

Item: CGGTCACC
True

And what about the sequence TAGAGGGA ?
False

Would you kindly repeat that for AGGGCTCG ?
False

Next: GGATCAAC
False

Then what about the sequence ACAGTCAT ?
True

Query AGAGTCCT next
False

Now the sequence CAGTACCG
True

And then AGCGCATA , what is it?
True

And what about the sequence ACAGTCAA ?
True

Measured values drawn from the supplement of paper PMC3334620 for this set.
